- Tested on: CXCR4 receptor (human, UniProt P61073 1-352)
- Sequence (P61073 whole entry): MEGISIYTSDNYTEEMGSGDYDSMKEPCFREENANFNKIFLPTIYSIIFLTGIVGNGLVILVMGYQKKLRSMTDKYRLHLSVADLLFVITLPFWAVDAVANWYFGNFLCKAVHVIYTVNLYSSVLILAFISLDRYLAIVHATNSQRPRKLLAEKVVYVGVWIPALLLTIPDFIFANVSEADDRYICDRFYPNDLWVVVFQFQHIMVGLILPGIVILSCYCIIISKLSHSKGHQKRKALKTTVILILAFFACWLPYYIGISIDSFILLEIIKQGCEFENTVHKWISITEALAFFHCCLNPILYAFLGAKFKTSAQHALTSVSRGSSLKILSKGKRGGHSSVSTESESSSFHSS
- Assay protocol: cell-based or functional assay
* marks the point of attachment. Palmitoyl = CCCCCCCCCCCCCCCC(=O)*
Measured endpoint: Max (% of vehicle), chemotaxis, SUPB-15, 1.0 uM

Palmitoyl-HATNSQRPRKLLAEKV-NH2 (SMILES CCCCCCCCCCCCCCCC(=O)N[C@@H](Cc1c[nH]cn1)C(=O)N[C@@H](C)C(=O)N[C@H](C(=O)N[C@@H](CC(N)=O)C(=O)N[C@@H](CO)C(=O)N[C@@H](CCC(N)=O)C(=O)N[C@@H](CCCNC(=N)N)C(=O)N1CCC[C@H]1C(=O)N[C@@H](CCCNC(=N)N)C(=O)N[C@@H](CCCCN)C(=O)N[C@@H](CC(C)C)C(=O)N[C@@H](CC(C)C)C(=O)N[C@@H](C)C(=O)N[C@@H](CCC(=O)O)C(=O)N[C@@H](CCCCN)C(=O)N[C@H](C(N)=O)C(C)C)[C@@H](C)O) [CXCR4 i2 loop compound 83] | 110 % of vehicle
Palmitoyl-VHATNSQRPRKLLA-NH2 (SMILES CCCCCCCCCCCCCCCC(=O)N[C@H](C(=O)N[C@@H](Cc1c[nH]cn1)C(=O)N[C@@H](C)C(=O)N[C@H](C(=O)N[C@@H](CC(N)=O)C(=O)N[C@@H](CO)C(=O)N[C@@H](CCC(N)=O)C(=O)N[C@@H](CCCNC(=N)N)C(=O)N1CCC[C@H]1C(=O)N[C@@H](CCCNC(=N)N)C(=O)N[C@@H](CCCCN)C(=O)N[C@@H](CC(C)C)C(=O)N[C@@H](CC(C)C)C(=O)N[C@@H](C)C(N)=O)[C@@H](C)O)C(C)C) [CXCR4 i2 loop compound 78] | 72.3 % of vehicle
Palmitoyl-HATNSQRPRKLLA-NH2 (SMILES CCCCCCCCCCCCCCCC(=O)N[C@@H](Cc1c[nH]cn1)C(=O)N[C@@H](C)C(=O)N[C@H](C(=O)N[C@@H](CC(N)=O)C(=O)N[C@@H](CO)C(=O)N[C@@H](CCC(N)=O)C(=O)N[C@@H](CCCNC(=N)N)C(=O)N1CCC[C@H]1C(=O)N[C@@H](CCCNC(=N)N)C(=O)N[C@@H](CCCCN)C(=O)N[C@@H](CC(C)C)C(=O)N[C@@H](CC(C)C)C(=O)N[C@@H](C)C(N)=O)[C@@H](C)O) [CXCR4 i2 loop compound 80] | 69 % of vehicle
Palmitoyl-HATNSQRPRKLLAEK-NH2 (SMILES CCCCCCCCCCCCCCCC(=O)N[C@@H](Cc1c[nH]cn1)C(=O)N[C@@H](C)C(=O)N[C@H](C(=O)N[C@@H](CC(N)=O)C(=O)N[C@@H](CO)C(=O)N[C@@H](CCC(N)=O)C(=O)N[C@@H](CCCNC(=N)N)C(=O)N1CCC[C@H]1C(=O)N[C@@H](CCCNC(=N)N)C(=O)N[C@@H](CCCCN)C(=O)N[C@@H](CC(C)C)C(=O)N[C@@H](CC(C)C)C(=O)N[C@@H](C)C(=O)N[C@@H](CCC(=O)O)C(=O)N[C@@H](CCCCN)C(N)=O)[C@@H](C)O) [CXCR4 i2 loop compound 82] | 126 % of vehicle
Palmitoyl-HATNSQRPRKL-NH2 (SMILES CCCCCCCCCCCCCCCC(=O)N[C@@H](Cc1c[nH]cn1)C(=O)N[C@@H](C)C(=O)N[C@H](C(=O)N[C@@H](CC(N)=O)C(=O)N[C@@H](CO)C(=O)N[C@@H](CCC(N)=O)C(=O)N[C@@H](CCCNC(=N)N)C(=O)N1CCC[C@H]1C(=O)N[C@@H](CCCNC(=N)N)C(=O)N[C@@H](CCCCN)C(=O)N[C@@H](CC(C)C)C(N)=O)[C@@H](C)O) [CXCR4 i2 loop compound 79] | 110 % of vehicle
